Measured values drawn from patent US20140011209 for this set.

- Assayed system: RVV-X (Russell's viper venom factor X activator) (UniProt Q7LZ61;Q4PRD1;Q4PRD2 Q7LZ61:189-619,Q4PRD1:24-146,Q4PRD2:25-158)
- Measurement notes: EMSA; room temperature, 1 h
- Particulars: tags: Haematologic Technologies; label: 32P end
Assay readout: Kd (µM)
Number in µM, nothing else.

Consider the following illustrative entries.
Binder	Assay readout	Val
UCCUCAAAGCGACCGACCUUUGCCUAAACAGCUGAUGGUUUACAA (ssRNA) [74, 10 from 3']	Kd	0.301
UCCUCAAAGCGACCGACCUUUGCCUAAACAGCUGAUGGUUUACAAAGGAA (ssRNA) [74, 5 from 3']	Kd	0.352
AAAGCGACCGACCUUUGCCUAAACAGCUGAUGGUUUACAAAGGAA (ssRNA) [74, 5 from both]	Kd	0.426

Let's switch to this binder now.
Exercise: Give reported Kd value for AAAGCGACCGACCUUUGCCUAAACAGCUGAUGGUUUACAAAGGAAGCACG (ssRNA) [74, 5 from 5']
Solution: 0.374
